# No. of cures annotations
System: Mus musculus
protocol.details: Compound was evaluated for the antimalarial activity against Plasmodium berghei in mice (Mus musculus) at the dose 320 (mg/kg) administered subcutaneously; (C) is the number of mice (Mus musculus) surviving out of five at 60 days post-infection
Assay type: functional
recorded.metric: No. of cures

1) CCCCNCC(O)c1cc(-c2ccc(Cl)cc2)cc(-c2ccc(Cl)cc2)c1 (stereo not given) = 5
2) CCCCN(CCCC)CC(O)c1cc(/C=C/c2ccc(C(F)(F)F)cc2)nc(/C=C/c2ccc(C(F)(F)F)cc2)c1 (stereo not given) = 5
3) CCCCN(CCCC)CC(O)c1cc(/C=C/c2ccc(C(F)(F)F)cc2)cc(/C=C/c2ccc(C(F)(F)F)cc2)c1 (stereo not given) = 5
4) CCCCNCC(O)c1cc(-c2ccc(Cl)cc2)nc(-c2ccc(Cl)cc2)c1 (stereo not given) = 5
5) CCCCN(CCCC)CC(O)c1cc(-c2ccc(Cl)cc2)nc(-c2ccc(Cl)cc2)c1 (stereo not given) = 4
